Target: T1, AfPiwi (UniProt O28951 1-427)
T1 sequence: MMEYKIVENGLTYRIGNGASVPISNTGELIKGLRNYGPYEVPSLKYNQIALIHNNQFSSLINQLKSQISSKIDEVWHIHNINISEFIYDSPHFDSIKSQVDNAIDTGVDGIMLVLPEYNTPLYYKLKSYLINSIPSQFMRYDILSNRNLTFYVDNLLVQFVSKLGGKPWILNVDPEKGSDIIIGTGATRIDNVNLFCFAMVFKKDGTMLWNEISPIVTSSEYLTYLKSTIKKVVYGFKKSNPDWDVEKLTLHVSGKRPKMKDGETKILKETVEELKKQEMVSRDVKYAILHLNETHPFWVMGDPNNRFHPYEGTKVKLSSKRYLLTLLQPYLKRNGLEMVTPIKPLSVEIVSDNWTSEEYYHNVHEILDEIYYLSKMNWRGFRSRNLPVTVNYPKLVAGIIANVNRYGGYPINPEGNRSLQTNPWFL
Experiment: ITC; target into AfPiwi-guide; 10 mM Mg2+; isolation 4600 nM; ITC: 50 mM Tris pH 7.5, 150 mM KCl, 5% glycerol, 10 mM MgCl2, 1 mM DTT, 20 C; guide 3.5-24 uM in cell with 3-4 fold excess AfPiwi, target in syringe
Conditions: protein: recombinant
Measurement Label: pKd
Friendly reminder that pKd comes from taking -log10 of the concentration in mol/L.

Prompt: Quick one: pKd of Fig 3B RNA guide / RNA target (seed) (dsRNA, guide 5' phosphate) RNA 1: UUGUUUGU RNA 2: ACAAACA ?
Completion: 7.09
